# Tested on: ACHN
# Assay Explanation: NCI tumour cell line growth inhibition, 48 h
Calls of active or inactive are those of the source. Cut-off read from the data, not from the text of the source: active = GI50 up to about 1.1 µM and inactive = higher.
Value Kind: GI50

Can you look up the measured GI50 of C=C1CC[C@@]2(OC1)OC1C[C@H]3[C@@H]4CC=C5C[C@@H](O)CC(OC6OCC(OC(=O)[C@@H](O)[C@@H](C)CC)C(OC(C)=O)C6OC6OC(C)C(O)C(O)C6O)[C@]5(C)[C@H]4CC[C@]3(C)C1[C@@H]2C (stereo partly drawn) for me?
2.28 µM (inactive)

Can you look up the measured GI50 of Nc1ccc2nc(N)n[n+]([O-])c2c1 for me?
> 100 µM (inactive)

Can you look up the measured GI50 of [N-]=[N+]=NC1CC(n2ccc(N)nc2=O)OC1COP(=O)(O)OP(=O)(O)OP(=O)(O)O (stereo not drawn) for me?
> 100 µM (inactive)

Can you look up the measured GI50 of C/C(=N\N(c1ccccc1)c1ccccc1)c1c(O)cc(C)oc1=O for me?
> 100 µM (inactive)

Can you look up the measured GI50 of CC(C)(C)C1CCC2c3c([nH]c4ccccc34)C3C(=O)N(c4cc(Cl)ccc4Cl)C(=O)C3C2C1 (stereo not drawn) for me?
> 100 µM (inactive)

Can you look up the measured GI50 of COC(=O)CC1c2ccccc2N2C(=O)Cc3c([nH]c4ccccc34)C12 (stereo not drawn) for me?
> 100 µM (inactive)

Can you look up the measured GI50 of COc1cc2c(cc1OC)[C@]1(O)C(=O)c3ccc4c(c3O[C@@H]1CO2)C[C@H](C(C)(C)O)O4 for me?
15.1 µM (inactive)

Can you look up the measured GI50 of Cc1ccc(Cl)c2c(=O)c3ccc(N)cc3sc12 for me?
21.4 µM (inactive)
